Cited source for all entries: patent US7521570B2

- target-of-assay: human OAT3 (human organic anion transporter 3) (Homo sapiens, UniProt Q8TCC7)
- Construct: expressed in transfected cells; host or cells: S2 cells expressing OAT3
- Sequence (Q8TCC7 1-542): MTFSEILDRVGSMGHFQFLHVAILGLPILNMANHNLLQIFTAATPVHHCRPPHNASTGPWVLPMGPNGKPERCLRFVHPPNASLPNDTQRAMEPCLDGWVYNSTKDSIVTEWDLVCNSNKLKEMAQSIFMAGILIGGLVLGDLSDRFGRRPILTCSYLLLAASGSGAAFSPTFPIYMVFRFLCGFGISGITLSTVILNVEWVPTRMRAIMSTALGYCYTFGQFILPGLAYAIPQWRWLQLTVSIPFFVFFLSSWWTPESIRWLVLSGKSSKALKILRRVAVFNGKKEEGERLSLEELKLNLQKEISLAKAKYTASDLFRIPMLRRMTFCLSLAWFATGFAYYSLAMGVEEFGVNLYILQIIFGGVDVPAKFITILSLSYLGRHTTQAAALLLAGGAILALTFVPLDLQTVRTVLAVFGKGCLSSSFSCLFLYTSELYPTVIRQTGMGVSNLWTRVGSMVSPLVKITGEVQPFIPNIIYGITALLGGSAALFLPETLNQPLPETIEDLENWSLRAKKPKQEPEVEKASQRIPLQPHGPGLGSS
- test-summary: Inhibition of 3H-estrone sulfate uptake by OAT3 in S2 cells
- Type: cell-based
- experimental-setup: OAT3, 3H-estrone sulfate uptake, FIG. 8; read-out: Ki-value (noncompetitive inhibition)
- Method: OAT3 is an organic anion transporter which is present at basal-lateral (vascular side) membrane of the proximal renal tubule and takes organic anion such as uric acid into cells, and estrone sulfate is known as the typical substrate of this. The horizontal axis of FIG. 8 represents 1/S (L/mmol) and the vertical axis represents 1/V (mg protein/μM/min), black square (▪) denotes 6-hydroxybenzbromarone (0.3 μM) case and white square (□) denotes control.
property-measured: pKi
Convention used: pKi is expressed as -log10 of the molar concentration.

Report pKi for CCc1oc2cc(O)ccc2c1C(=O)c1cc(Br)c(O)c(Br)c1 [6-hydroxybenzbromarone] please.
6.15
